Biological target: T1, cynoSIRPα (NP_001271679), Extracellular Domain + His-Tag (cynomolgus monkey)
T1 construct: also called CySIRPα NP_001271679; not shown: His-Tag
T1 chain: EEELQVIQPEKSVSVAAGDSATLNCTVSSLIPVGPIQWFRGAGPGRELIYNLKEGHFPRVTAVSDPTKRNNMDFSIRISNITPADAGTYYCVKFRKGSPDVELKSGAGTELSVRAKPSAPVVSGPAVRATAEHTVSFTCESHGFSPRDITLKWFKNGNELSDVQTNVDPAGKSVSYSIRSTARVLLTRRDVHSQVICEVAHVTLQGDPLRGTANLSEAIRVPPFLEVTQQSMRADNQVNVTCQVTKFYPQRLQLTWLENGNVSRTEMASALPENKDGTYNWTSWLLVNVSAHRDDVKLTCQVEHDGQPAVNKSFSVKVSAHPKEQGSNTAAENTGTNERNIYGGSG
Test: SPR, antibody captured on Protein A/G, ECD-His analyte, 1:1 fit
property.label: koff (s⁻¹)
The response must be a number in s⁻¹ with no trailing unit.

Challenge: In one line, give reported koff of the entry Antibody E19 (antibody, human IgG1, kappa, L234A L235A, V domains shown) VH: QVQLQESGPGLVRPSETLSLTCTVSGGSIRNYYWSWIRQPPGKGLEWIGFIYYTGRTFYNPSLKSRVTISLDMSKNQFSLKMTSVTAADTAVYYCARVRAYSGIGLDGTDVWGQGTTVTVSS VL: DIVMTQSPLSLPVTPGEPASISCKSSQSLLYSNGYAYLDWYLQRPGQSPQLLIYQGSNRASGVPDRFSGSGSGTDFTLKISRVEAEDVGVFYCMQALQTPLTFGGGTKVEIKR .
Response given: 0.00725
